Each record here notes measured growth at 10 µM.
test: Antiproliferative activity against human IGR-39 cells assessed as cell growth at 10 uM incubated for 72 hrs by MTT assay relative to untreated control; format: functional; settings: IGR-39, 72 h, read-out: Activity
measurement_label: growth at 10 µM (%)

- COc1ccc(C2CC(c3cccs3)=NN2C2=NC(=O)/C(=C3/C(=O)Nc4c(Br)cccc43)S2)cc1 (configuration not stated): 101
- COc1ccc(C2CC(c3ccc4ccccc4c3)=NN2C2=NC(=O)/C(=C3/C(=O)Nc4ccc(Cl)cc43)S2)cc1 (configuration not stated): 1.3
- COc1ccc(C2CC(c3ccc4ccccc4c3)=NN2C2=NC(=O)/C(=C3/C(=O)Nc4c(F)cccc43)S2)cc1 (configuration not stated): 109
- COc1ccc(C2CC(c3cccs3)=NN2C2=NC(=O)/C(=C3/C(=O)Nc4c(C)cc(C)cc43)S2)cc1 (configuration not stated): 117
- COc1ccc(C2CC(c3cccs3)=NN2C2=NC(=O)/C(=C3/C(=O)Nc4ccc(F)cc43)S2)cc1 (configuration not stated): 28.1
- COc1ccc(C2CC(c3cccs3)=NN2C2=NC(=O)/C(=C3/C(=O)Nc4ccc(Cl)cc43)S2)cc1 (configuration not stated): 0.9
- COc1ccc(C2CC(c3cccs3)=NN2C2=NC(=O)/C(=C3/C(=O)Nc4ccc(C)cc43)S2)cc1 (configuration not stated): 1.37
- COc1ccc(C2CC(c3ccc4ccccc4c3)=NN2C2=NC(=O)/C(=C3/C(=O)Nc4ccc(OC)cc43)S2)cc1 (configuration not stated): 1.2
- COc1ccc(C2CC(c3cccs3)=NN2C2=NC(=O)/C(=C3/C(=O)Nc4ccc(OC)cc43)S2)cc1 (configuration not stated): 98.6
- COc1ccc(C2CC(c3ccc4ccccc4c3)=NN2C2=NC(=O)/C(=C3/C(=O)Nc4c(C)cc(C)cc43)S2)cc1 (configuration not stated): 63.4
- COc1ccc(C2CC(c3ccc4ccccc4c3)=NN2C2=NC(=O)/C(=C3/C(=O)Nc4c(Br)cccc43)S2)cc1 (configuration not stated): 98.6
- COc1ccc(C2CC(c3ccc4ccccc4c3)=NN2C2=NC(=O)/C(=C3/C(=O)Nc4ccc(C)cc43)S2)cc1 (configuration not stated): 0.46
